assay system: T1, B7-H3, native protein on the cell surface of A498 and SK-MES-1 cells (UniProt Q5ZPR3 29-534, limits assumed)
T1 construct: whole, on cells; The cell line is named under assay for each row
T1 sequence (looked up): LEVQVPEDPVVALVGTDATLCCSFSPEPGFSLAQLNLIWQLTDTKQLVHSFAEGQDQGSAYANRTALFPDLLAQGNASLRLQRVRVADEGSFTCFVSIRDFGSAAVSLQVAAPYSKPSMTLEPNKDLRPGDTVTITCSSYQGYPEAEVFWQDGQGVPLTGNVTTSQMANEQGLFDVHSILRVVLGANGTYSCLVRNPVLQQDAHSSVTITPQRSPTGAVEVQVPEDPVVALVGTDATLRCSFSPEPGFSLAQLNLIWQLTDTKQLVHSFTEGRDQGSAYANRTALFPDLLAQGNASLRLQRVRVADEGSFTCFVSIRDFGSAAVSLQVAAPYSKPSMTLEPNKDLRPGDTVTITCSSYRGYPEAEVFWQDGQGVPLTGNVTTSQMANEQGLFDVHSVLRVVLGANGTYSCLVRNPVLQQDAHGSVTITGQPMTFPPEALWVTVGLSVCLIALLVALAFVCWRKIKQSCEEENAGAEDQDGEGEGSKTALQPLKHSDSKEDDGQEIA
procedure summary: flow cytometry (FACS) on SK-MES-1 cells
measurement type: EC50 (nM)
Answers are plain numbers, in nM.

binder SCT-Da250 (antibody, V domains shown) VH: QGQMQQSGAELVKPGASVRLSCKTSGFTFSSFYISWLKQKPGQSLEWIAWIYAGPGYTSYNQKFTGKAQLTVDTSSSTAYMQFSSLTTEDSAIYYCARHVGRQRGYFDVWGAGTTVTVSS VL: DIVMTQSHKFMSTSVGDRVSITCKASQDVSTAVAWYQQKPGQSPKLLIYSASYRYTGVPDHFTVSGSGTDFTFTISSVQAEDLAVYYCQQHYSTPWTFGGGTKLEIK , EC50 observed: 1.46
